# study.target: Androgen Receptor (AR) (Homo sapiens, UniProt P10275)
# Construct: endogenous in cells; host or cells: VCaP
# Sequence (P10275 1-920): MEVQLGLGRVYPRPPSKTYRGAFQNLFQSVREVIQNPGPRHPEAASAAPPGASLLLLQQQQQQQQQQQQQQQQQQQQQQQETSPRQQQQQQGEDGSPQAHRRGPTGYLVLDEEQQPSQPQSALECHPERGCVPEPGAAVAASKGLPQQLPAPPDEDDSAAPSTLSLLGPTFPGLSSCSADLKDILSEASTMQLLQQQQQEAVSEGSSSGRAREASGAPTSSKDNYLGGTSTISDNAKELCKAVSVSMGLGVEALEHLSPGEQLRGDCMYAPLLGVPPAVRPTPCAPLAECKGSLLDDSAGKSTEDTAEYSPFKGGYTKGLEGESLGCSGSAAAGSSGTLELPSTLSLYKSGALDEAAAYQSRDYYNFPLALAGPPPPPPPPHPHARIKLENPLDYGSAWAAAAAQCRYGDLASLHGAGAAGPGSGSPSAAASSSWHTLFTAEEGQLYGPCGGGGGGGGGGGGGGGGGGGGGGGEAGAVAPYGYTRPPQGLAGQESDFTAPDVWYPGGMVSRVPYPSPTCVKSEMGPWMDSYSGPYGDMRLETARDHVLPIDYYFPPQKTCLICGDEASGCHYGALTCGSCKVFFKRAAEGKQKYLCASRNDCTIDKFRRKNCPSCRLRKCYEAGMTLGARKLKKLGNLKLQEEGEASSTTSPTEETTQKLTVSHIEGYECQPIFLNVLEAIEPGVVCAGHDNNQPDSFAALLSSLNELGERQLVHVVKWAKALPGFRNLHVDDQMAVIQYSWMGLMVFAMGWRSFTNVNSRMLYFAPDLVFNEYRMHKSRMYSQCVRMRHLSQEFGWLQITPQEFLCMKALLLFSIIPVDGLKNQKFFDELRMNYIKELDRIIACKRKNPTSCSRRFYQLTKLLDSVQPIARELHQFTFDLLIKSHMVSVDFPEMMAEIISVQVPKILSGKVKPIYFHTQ
# assay.protocol: AR immunofluorescence staining, high content imager, VCaP cells
# Format: cell-based
# test.settings: AR degradation by immunofluorescence
Reported DC50 values follow for various compounds
reported.metric: DC50

>>> reported_result("COCCN(C[C@H]1CN(c2ccc(C(=O)N[C@H]3C(C)(C)[C@@H](Oc4ccc(C#N)c(OC)c4)C3(C)C)cc2)CCO1)[C@H]1C[C@H](Oc2ccc(C(=O)N[C@@H]3CCC(=O)NC3=O)c(F)c2)C1")
"< 1 nM"
>>> reported_result("Cc1cc(O[C@H]2C(C)(C)[C@H](NC(=O)c3ccc(N4CCC(CN5CCOCCCCOc6cc(C(=O)NC7CCC(=O)NC7=O)ccc6O[C@H]6C[C@H]5C6)CC4)cc3)C2(C)C)cc(C)c1C#N (stereo partly shown)")
"< 1 nM"
>>> reported_result("COc1cc(O[C@H]2C[C@H](OC3CCN(c4ccc(C(=O)N[C@H]5C(C)(C)[C@H](Oc6cc(C)c(C#N)c(C)c6)C5(C)C)cc4)CC3)C2)ccc1C(=O)NC1CCC(=O)NC1=O (stereo partly shown)")
"< 1 nM"
>>> reported_result("COc1cc(O[C@H]2C(C)(C)[C@H](NC(=O)c3ccc(N4CCO[C@@H](CN5CCN(c6ccc(C(=O)NC7CCC(=O)NC7=O)c(OC)c6)CC5)C4)cc3)C2(C)C)ccc1C#N (stereo partly shown)")
"< 1 nM"
>>> reported_result("Cc1cc(O[C@H]2C(C)(C)[C@H](NC(=O)c3ccc(N4CCC(CN5CCN(c6ccc(C(=O)NC7CCC(=O)NC7=O)c(F)c6)CC5)CC4)cc3)C2(C)C)cc(C)c1C#N (stereo partly shown)")
"< 1 nM"
>>> reported_result("COCCN(C[C@H]1CN(c2ccc(C(=O)N[C@H]3C(C)(C)[C@H](Oc4cc(C)c(C#N)c(C)c4)C3(C)C)cc2)CCO1)[C@H]1C[C@H](Oc2ccc(C(=O)N[C@H]3CCC(=O)NC3=O)c(F)c2)C1")
"1 to 10 nM"
>>> reported_result("CN(C(=O)c1ccc(N2CCN(CC3CCN(c4ccc(C(=O)N[C@H]5CC[C@H](Oc6ccc(C#N)c(Cl)c6)CC5)nn4)CC3)CC2)cc1F)C1CCC(=O)NC1=O (stereo partly shown)")
"< 1 nM"
>>> reported_result("COc1cc(O[C@H]2C[C@H](N3CCOC4(CCN(c5ccc(C(=O)N[C@H]6C(C)(C)[C@H](Oc7cc(C)c(C#N)c(C)c7)C6(C)C)cc5)CC4)C3)C2)cc(C(=O)NC2CCC(=O)NC2=O)c1 (stereo partly shown)")
"1 to 10 nM"
>>> reported_result("CC1(C)[C@H](NC(=O)c2ccc(C#CC3CCN(C4CCN(c5ccc(C(=O)N[C@H]6CCC(=O)NC6=O)c(F)c5)CC4)CC3)cc2)C(C)(C)[C@H]1Oc1ccc(C#N)c(Cl)c1")
"< 1 nM"
>>> reported_result("COc1cc(O[C@H]2C(C)(C)[C@H](NC(=O)c3ccc(N4CCC(CN5CCN(c6ccc(F)c(C(=O)N[C@H]7CCC(=O)NC7=O)c6)CC5)CC4)cc3)C2(C)C)ccc1C#N")
"10 to 100 nM"
